- Test system: α1 transfected Panc-1 cells
- measurement-notes: Sensitivity to oleandrin of Panc-1 cells transfected with α1 subunit isoform
- Format: cell-based
- condition-info: Homo sapiens
pIC50: −log10 of the molar value.
observation-type: pIC50

>>> reading("CO[C@H]1C[C@H](O[C@H]2CC[C@@]3(C)[C@H](CC[C@@H]4[C@@H]3CC[C@]3(C)[C@@H](C5=CC(=O)OC5)[C@@H](OC(C)=O)C[C@]43O)C2)O[C@@H](C)[C@@H]1O")
"< 7.30"
